Reported IC50 values follow for various compounds
Target: E. coli β-glucuronidase (Escherichia coli (strain K12))
Assay: β-Glucuronidase assay (4MUG hydrolysis, fluorescence)
Format: biochemical
Settings: Table 1; compounds from 35,000 compound diversity set library; 50 pM enzyme, 125 uM 4MUG; read-out: IC50, β-Glucuronidase Inhibitory activity of phenoxythiophene sulfonamides
reported.metric: IC50 (µM)

structure.string: O=[S+]([O-])(NCc1cccc2ccccc12)c1cc(Cl)c(Oc2cccnc2)s1
result.value: 192
--
structure.string: O=[S+]([O-])(NCc1cccc2ccccc12)c1cc(Cl)c(Oc2ccccc2)s1
result.value: 444
--
structure.string: O=[S+]([O-])(NCc1cccc2ccccc12)c1ccc(Oc2ccc3c(c2)CCCC3)s1
result.value: 149
--
structure.string: Cc1cc(C)cc(Oc2sc([S+](=O)([O-])NCc3cccc4ccccc34)cc2Cl)c1
result.value: 152
